Source of measurements: PubChem BioAssay (NCI)

# System: LOX IMVI melanoma
# measurement_description: NCI-60 one-dose screen, 48 h (100 = growth as untreated, 0 = no growth, -100 = all killed)
# settings: 10 µM unless noted
This is part of a sample that, as a whole, favours compounds with a hit. Of some 83,000 tested, about 20% had one in any assay.
Kindly apply the following: 1 if growth is less than 20%, -1 in every other case.

Reference set (4 entries):
CN1C(=O)c2cc(Cl)nc3c(NC(=O)c4cccc(Cl)c4)c(Cl)c(NC(=O)c4cccc(Cl)c4)c1c23; 1
O=C(O)c1cn(C2CC2)c2cc(N3CCN(C(=O)CSc4nnc(-c5ccc(Cl)cc5)n4-c4ccccc4)CC3)c(F)cc2c1=O; -1
NC(N)=NC(N)=Nc1cc2ccccc2c2ccccc12; 1
CCOCCc1c(O)nc(SC)[nH]c1=O; -1

Could you now consider this next compound?
Bench note: check whether COc1cc(C2=NN(c3ccccc3)C(c3cccc(Nc4ccnc5cc(C(F)(F)F)ccc45)c3)C2)cc(OC)c1OC (stereo not given) shows growth below 20%
-1
